- System: antibody production to sheep red blood cells (SRBC)
- Assay Text: antigen (SRBC) dependent antibody synthesis in vivo (IgM plaques)
- Set-up: species or system Balb/C mice
- Details: Table X; 0.5 mg/kg; *P ≤ 0.001 where starred
Each entry below carries its recorded % change from control, antibody response to SRBC.
Measured Parameter: % change from control, antibody response to SRBC

- Molecule: "O=c1c2nc3n(c2nc2n1CCS2)CCS3 [NPT 16449]"
  Experimental Value: "+59%"
- Molecule: "Oc1c2ncnc-2nc2n1CCS2 [NPT 16450]"
  Experimental Value: "+15%"
- Molecule: "Oc1ncnc2c1nc1n2CCS1 [NPT 16416]"
  Experimental Value: "+66%"
- Molecule: "Oc1ncnc2nc3n(c12)CCS3 [NPT 16485]"
  Experimental Value: "+134%"

----------
- Test system: antibody production to sheep red blood cells (SRBC)
- Assay Text: antigen (SRBC) dependent antibody synthesis in vivo (IgM plaques)
- Parameters: species or system Balb/C mice
- Details: Table X; 0.05 mg/kg; *P ≤ 0.001 where starred
Measured Parameter: % change from control, antibody response to SRBC (%)

- Compound Structure: "Oc1c2ncnc-2nc2n1CCS2"
  Experimental Value: -64
- Compound Structure: "CSc1ncnc2c1nc1n2CCS1"
  Experimental Value: -40
